Kindly supply the reported IC50 values for the records listed here.
tested_target: PI3Kγ (Homo sapiens (Human))
Sequence (P48736 whole entry, canonical isoform): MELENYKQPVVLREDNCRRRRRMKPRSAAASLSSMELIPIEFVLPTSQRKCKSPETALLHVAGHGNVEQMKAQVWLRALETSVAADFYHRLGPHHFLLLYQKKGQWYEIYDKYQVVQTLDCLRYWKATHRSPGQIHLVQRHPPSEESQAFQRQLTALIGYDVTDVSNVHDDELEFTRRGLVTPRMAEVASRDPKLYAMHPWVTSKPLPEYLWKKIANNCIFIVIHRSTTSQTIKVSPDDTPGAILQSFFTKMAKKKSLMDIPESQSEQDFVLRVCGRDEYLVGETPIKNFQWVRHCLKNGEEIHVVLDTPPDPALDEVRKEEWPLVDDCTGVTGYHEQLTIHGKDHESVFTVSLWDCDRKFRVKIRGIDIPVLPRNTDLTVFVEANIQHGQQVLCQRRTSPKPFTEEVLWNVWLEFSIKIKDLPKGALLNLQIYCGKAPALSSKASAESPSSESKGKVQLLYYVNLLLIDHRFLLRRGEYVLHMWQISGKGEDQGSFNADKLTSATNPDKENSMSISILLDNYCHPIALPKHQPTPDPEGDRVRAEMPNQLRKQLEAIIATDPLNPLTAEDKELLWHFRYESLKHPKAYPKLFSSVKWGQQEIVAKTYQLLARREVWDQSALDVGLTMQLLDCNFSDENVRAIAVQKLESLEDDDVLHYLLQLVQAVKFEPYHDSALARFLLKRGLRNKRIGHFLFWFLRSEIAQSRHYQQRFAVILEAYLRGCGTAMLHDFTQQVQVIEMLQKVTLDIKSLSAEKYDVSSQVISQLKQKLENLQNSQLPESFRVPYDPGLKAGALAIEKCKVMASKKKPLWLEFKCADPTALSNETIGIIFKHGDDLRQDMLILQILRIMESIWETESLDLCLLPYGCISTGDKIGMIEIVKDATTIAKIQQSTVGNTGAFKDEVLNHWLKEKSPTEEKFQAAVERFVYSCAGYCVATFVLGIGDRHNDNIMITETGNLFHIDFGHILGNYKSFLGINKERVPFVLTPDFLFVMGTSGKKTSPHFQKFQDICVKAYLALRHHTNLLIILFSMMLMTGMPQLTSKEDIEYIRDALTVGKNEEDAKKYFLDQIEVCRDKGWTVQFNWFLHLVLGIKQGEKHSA
Sequence (Q8WYR1 whole entry partner, canonical isoform): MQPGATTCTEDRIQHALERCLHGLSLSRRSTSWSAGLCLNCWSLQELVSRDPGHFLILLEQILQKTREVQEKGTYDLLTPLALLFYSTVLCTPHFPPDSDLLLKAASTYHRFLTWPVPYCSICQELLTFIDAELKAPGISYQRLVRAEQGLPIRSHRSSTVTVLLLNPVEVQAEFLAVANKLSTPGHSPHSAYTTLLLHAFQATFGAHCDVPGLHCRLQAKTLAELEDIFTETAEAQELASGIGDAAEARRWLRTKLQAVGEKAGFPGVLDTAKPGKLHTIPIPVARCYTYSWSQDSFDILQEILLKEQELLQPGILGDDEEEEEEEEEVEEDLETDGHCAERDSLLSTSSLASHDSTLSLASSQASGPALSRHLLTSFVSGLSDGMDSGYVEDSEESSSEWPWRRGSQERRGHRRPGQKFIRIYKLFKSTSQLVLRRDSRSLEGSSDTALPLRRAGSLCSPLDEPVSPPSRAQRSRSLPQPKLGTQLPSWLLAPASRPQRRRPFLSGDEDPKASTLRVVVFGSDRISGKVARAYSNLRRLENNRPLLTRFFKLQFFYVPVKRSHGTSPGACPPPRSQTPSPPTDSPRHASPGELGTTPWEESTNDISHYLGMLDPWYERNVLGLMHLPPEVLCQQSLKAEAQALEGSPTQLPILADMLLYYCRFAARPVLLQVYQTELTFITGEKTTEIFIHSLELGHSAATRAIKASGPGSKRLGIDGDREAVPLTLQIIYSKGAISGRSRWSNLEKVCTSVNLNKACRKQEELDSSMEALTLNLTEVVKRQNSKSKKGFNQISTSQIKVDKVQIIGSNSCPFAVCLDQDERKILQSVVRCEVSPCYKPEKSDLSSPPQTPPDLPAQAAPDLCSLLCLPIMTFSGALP
assay: TR-FRET enzymatic assay of PI3K isoforms (PI3Kγ)
Format: biochemical
condition_summary: TR-FRET, 2×Km ATP, 2 μM PIP2, PI3Kγ at 2 nM, incubated for 30 minutes at 25° C.; read-out: γ IC50
Protocol: The compounds of formula (I) were characterized for their enzymatic activity against the PI3K isoforms. Certain compounds of the present application, including certain compounds of formula (II) and (III) were also characterized for their enzymatic activity against PI3K isoforms. The activities were measured using a time-resolved fluorescence resonance energy transfer (TR-FRET) assay.
Where a name gives a salt, the structure may show the parent alone.

Incoming: What value of measured IC50 is listed for C[C@H](Nc1nc(N)nc(C(F)F)c1C#N)c1nc2cccc(Cl)c2c(=O)n1-c1cccc(C(N)=O)c1 [Compound 25] ?
Outgoing: 0.7 µM

Incoming: What value of measured IC50 is listed for CC(Oc1ncnc2scnc12)c1nc2cccc(Cl)c2c(=O)n1-c1cccc(NC(=O)Nc2ccccc2Cl)c1 (centres unmarked) [Compound 156] ?
Outgoing: 0.93 µM

Incoming: What value of measured IC50 is listed for CCNC(=O)Nc1cccc(-n2c([C@H](C)Nc3ncnc(N)c3C#N)nc3c(Cl)ccc(Cl)c3c2=O)c1 [Compound 48] ?
Outgoing: > 10 µM

Incoming: What value of measured IC50 is listed for CCNC(=O)Nc1cccc(-n2c([C@H](C)Nc3ncnc(N)c3C#Cc3ccccn3)nc3cccc(Cl)c3c2=O)c1 [Compound 92] ?
Outgoing: 1.6 µM

Incoming: What value of measured IC50 is listed for C[C@H](Nc1nc(N)nc(N)c1Cl)c1nc2c(Cl)ccc(Cl)c2c(=O)n1-c1cccc(C(N)=O)c1 [Compound 4] ?
Outgoing: 4.4 µM

Incoming: What value of measured IC50 is listed for CCNC(=O)Nc1cccc(-n2c([C@H](C)Nc3ncnc(N)c3C(=O)O)nc3cccc(Cl)c3c2=O)c1 [Compound 136] ?
Outgoing: > 10 µM

Incoming: What value of measured IC50 is listed for CCNC(=O)Nc1cccc(-n2c([C@H](C)Oc3ncnc(N)c3C#N)nc3cccc(Cl)c3c2=O)c1 [Compound 70] ?
Outgoing: 1.5 µM

Incoming: What value of measured IC50 is listed for C[C@H](Nc1ncnc(N)c1C#N)c1nc2cccc(Cl)c2c(=O)n1-c1cccc(NC(=O)NCCN(C)C)c1 [Compound 116, trifluoroacetic acid salt] ?
Outgoing: > 10 µM

Incoming: What value of measured IC50 is listed for C[C@H](Nc1ncnc(N)c1C#N)c1nc2cccc(Cl)c2c(=O)n1-c1cccc(NC(=O)NCC(F)(F)F)c1 [Compound 76] ?
Outgoing: 4.4 µM

Incoming: What value of measured IC50 is listed for CCNC(=O)Nc1cccc(-n2c([C@H](C)Nc3ncnc(N)c3C#N)nc3cc(F)ccc3c2=O)c1 [Compound 54] ?
Outgoing: > 10 µM

Incoming: What value of measured IC50 is listed for CONC(=O)Nc1cccc(-n2c([C@H](C)Oc3ncnc4scnc34)nc3cccc(Cl)c3c2=O)c1 [Compound 153] ?
Outgoing: 1.6 µM

Incoming: What value of measured IC50 is listed for CNC(=O)Nc1cccc(-n2c([C@H](C)Nc3ncnc4[nH]cnc34)nc3cccc(Cl)c3c2=O)c1 [Compound 87] ?
Outgoing: 4.5 µM

Incoming: What value of measured IC50 is listed for CCNC(=O)Nc1cccc(-n2c([C@H](C)Nc3ncnc(N)c3C#N)nc3cccc(Cl)c3c2=O)c1Cl (single isomer, unassigned) [Compound 94] ?
Outgoing: > 10 µM

Incoming: What value of measured IC50 is listed for COCCCNC(=O)Nc1cccc(-n2c([C@H](C)Nc3ncnc4[nH]cnc34)nc3cccc(Cl)c3c2=O)c1 [Compound 135] ?
Outgoing: 3.5 µM

###

tested_target: PI3Kγ (Homo sapiens (Human))
assay: TR-FRET enzymatic assay of PI3K isoforms (PI3Kγ)
Format: biochemical
condition_summary: TR-FRET, 2×Km ATP, 2 μM PIP2, PI3Kγ at 2 nM, incubated for 30 minutes at 25° C.; read-out: γ IC50
So basically: is IC50 under 2000 nM? Then YES. Not under? Then NO.

Incoming: Input CCNC(=O)Nc1cccc(-n2c([C@H](C)Nc3ncnc(N)c3C#N)nc3cccc(C#N)c3c2=O)c1 ; condition: IC50 strictly below 2000 nM. Does it hold?
Outgoing: NO

Incoming: Input CCCNC(=O)Nc1cccc(-n2c([C@H](C)Nc3ncnc(N)c3C#N)nc3cccc(Cl)c3c2=O)c1 ; condition: IC50 strictly below 2000 nM. Does it hold?
Outgoing: NO

Incoming: Input NC(=O)c1cccc(-n2c([C@@H](Nc3nc(N)nc(N)c3Cl)C3CC3)nc3cccc(Cl)c3c2=O)c1 ; condition: IC50 strictly below 2000 nM. Does it hold?
Outgoing: NO

Incoming: Input CCNC(=O)Nc1cccc(-n2c([C@H](C)Nc3ncnc(N)c3C#N)nc3cccc(F)c3c2=O)c1 ; condition: IC50 strictly below 2000 nM. Does it hold?
Outgoing: NO

Incoming: Input C[C@H](Nc1nc(N)nc(C(F)F)c1C#N)c1nc2c(F)ccc(Cl)c2c(=O)n1-c1cccc(C(N)=O)c1 ; condition: IC50 strictly below 2000 nM. Does it hold?
Outgoing: YES

Incoming: Input N#Cc1c(N)ncnc1N1CCC[C@H]1c1nc2cccc(Cl)c2c(=O)n1-c1cccc(NC(=O)NCC2OCCO2)c1 ; condition: IC50 strictly below 2000 nM. Does it hold?
Outgoing: NO

Incoming: Input CCNC(=O)Nc1cccc(-n2c([C@H](C)Nc3ncnc(N)c3C#N)nc3cccc(Br)c3c2=O)c1 ; condition: IC50 strictly below 2000 nM. Does it hold?
Outgoing: YES

Incoming: Input CCNC(=O)Nc1cccc(-n2c([C@H](C)Nc3ncnc(N)c3C#N)nc3ccccc3c2=O)c1 ; condition: IC50 strictly below 2000 nM. Does it hold?
Outgoing: NO

Incoming: Input C[C@H](Oc1ncnc2scnc12)c1nc2cccc(Cl)c2c(=O)n1-c1cccc(NC(=O)NC2CCCC2)c1 ; condition: IC50 strictly below 2000 nM. Does it hold?
Outgoing: NO

Incoming: Input C[C@H](Nc1ncnc(N)c1C#N)c1nc2cccc(Cl)c2c(=O)n1-c1cccc(NC(=O)Nc2ccccc2C(F)(F)F)c1 ; condition: IC50 strictly below 2000 nM. Does it hold?
Outgoing: NO

Incoming: Input CC(Oc1ncnc2scnc12)c1nc2cccc(Cl)c2c(=O)n1-c1cccc(NC(=O)NCC(F)(F)F)c1 (stereo not drawn) ; condition: IC50 strictly below 2000 nM. Does it hold?
Outgoing: YES

Incoming: Input NC(=O)c1cncc(-n2c([C@@H](Nc3nc(N)nc(N)c3Cl)C3CC3)nc3cccc(Cl)c3c2=O)c1 ; condition: IC50 strictly below 2000 nM. Does it hold?
Outgoing: NO

Incoming: Input NC(=O)c1cccc(-n2c([C@@H](Nc3nc(N)nc(N)c3Cl)C3CC3)nc3c(Cl)cc(F)cc3c2=O)c1 ; condition: IC50 strictly below 2000 nM. Does it hold?
Outgoing: NO

Incoming: Input C[C@H](Nc1ncnc(N)c1C#N)c1nc2cccc(Cl)c2c(=O)n1-c1cccc(NC(=O)NCCO)c1 ; condition: IC50 strictly below 2000 nM. Does it hold?
Outgoing: NO

Incoming: Input C[C@H](Oc1ncnc2scnc12)c1nc2cccc(Cl)c2c(=O)n1-c1cccc(NC(=O)NCCO)c1 ; condition: IC50 strictly below 2000 nM. Does it hold?
Outgoing: YES

###

Kindly supply the reported IC50 values for the records listed here.
tested_target: PI3Kβ (Homo sapiens (Human), UniProt P42338)
Sequence (P42338 whole entry, canonical isoform): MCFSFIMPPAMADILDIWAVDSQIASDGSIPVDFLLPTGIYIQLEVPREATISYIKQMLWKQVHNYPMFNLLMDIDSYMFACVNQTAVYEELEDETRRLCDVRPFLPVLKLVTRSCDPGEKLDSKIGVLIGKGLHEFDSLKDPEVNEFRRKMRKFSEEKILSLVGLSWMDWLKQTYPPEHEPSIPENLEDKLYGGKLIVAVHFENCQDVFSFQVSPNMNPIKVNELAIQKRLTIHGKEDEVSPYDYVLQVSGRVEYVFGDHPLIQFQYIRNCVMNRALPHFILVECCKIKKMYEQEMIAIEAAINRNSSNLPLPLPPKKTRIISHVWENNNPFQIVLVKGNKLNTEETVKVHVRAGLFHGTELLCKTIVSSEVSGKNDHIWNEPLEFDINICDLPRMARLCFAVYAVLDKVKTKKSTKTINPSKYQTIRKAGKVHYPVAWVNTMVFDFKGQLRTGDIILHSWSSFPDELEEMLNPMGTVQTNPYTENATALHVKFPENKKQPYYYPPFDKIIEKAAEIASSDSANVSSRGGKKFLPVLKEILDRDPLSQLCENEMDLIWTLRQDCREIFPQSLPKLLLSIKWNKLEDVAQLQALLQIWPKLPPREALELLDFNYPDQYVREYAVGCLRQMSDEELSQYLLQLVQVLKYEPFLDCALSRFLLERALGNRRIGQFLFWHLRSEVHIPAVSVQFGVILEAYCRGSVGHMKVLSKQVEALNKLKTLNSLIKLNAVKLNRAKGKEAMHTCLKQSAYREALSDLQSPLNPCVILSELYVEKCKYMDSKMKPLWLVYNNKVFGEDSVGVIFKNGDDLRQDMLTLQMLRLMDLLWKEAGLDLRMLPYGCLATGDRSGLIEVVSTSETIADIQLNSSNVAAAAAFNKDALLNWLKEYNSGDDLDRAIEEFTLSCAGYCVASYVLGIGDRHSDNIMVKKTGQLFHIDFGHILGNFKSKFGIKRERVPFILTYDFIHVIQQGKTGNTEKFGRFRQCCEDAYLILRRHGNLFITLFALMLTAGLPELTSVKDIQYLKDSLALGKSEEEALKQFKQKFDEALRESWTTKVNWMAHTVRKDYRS
Sequence (P27986 whole entry partner, canonical isoform): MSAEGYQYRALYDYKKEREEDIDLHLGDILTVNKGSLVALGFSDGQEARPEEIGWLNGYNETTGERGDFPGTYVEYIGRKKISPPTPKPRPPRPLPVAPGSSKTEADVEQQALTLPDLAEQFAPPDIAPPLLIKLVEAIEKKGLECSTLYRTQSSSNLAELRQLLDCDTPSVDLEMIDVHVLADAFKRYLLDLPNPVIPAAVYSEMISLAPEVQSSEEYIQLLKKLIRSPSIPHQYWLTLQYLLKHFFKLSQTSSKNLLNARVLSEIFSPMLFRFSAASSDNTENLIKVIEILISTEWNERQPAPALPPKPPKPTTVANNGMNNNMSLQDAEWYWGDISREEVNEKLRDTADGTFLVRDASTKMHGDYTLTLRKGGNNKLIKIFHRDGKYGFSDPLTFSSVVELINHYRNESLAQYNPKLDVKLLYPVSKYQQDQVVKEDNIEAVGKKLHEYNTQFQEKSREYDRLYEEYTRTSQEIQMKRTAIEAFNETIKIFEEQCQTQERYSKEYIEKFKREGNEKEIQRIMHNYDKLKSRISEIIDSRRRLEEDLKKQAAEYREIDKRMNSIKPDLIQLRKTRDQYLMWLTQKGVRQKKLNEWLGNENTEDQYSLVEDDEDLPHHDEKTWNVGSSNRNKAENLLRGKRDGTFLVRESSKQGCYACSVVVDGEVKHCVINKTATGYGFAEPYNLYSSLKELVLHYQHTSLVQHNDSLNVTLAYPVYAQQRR
assay: TR-FRET enzymatic assay of PI3K isoforms (PI3Kβ)
condition_summary: TR-FRET, 2×Km ATP, 2 μM PIP2, incubated for 30 minutes at 25° C.; read-out: β IC50
Expressed in nM, but write only the number.

Incoming: What value of measured IC50 is listed for CC[C@H](Nc1nc(N)nc(N)c1Cl)c1nc2cccc(Cl)c2c(=O)n1-c1cccc(C(N)=O)c1 [Compound 7] ?
Outgoing: 7

Incoming: What value of measured IC50 is listed for CCNC(=O)Nc1cccc(-n2c([C@H](C)Nc3ncnn4ccnc34)nc3cccc(Cl)c3c2=O)c1 [Compound 71] ?
Outgoing: 29

Incoming: What value of measured IC50 is listed for COc1ccccc1NC(=O)Nc1cccc(-n2c([C@H](C)Nc3ncnc(N)c3C#N)nc3cccc(Cl)c3c2=O)c1 [Compound 109] ?
Outgoing: 9

Incoming: What value of measured IC50 is listed for NC(=O)c1cncc(-n2c([C@@H](Nc3nc(N)nc(N)c3Cl)C3CC3)nc3cccc(Cl)c3c2=O)c1 [Compound 163] ?
Outgoing: 11

###

tested_target: UniProt:P48736
assay: TR-FRET enzymatic assay of PI3K isoforms (PI3Kγ)
Assay type: biochemical
condition_summary: TR-FRET, 2×Km ATP, 2 μM PIP2, PI3Kγ at 2 nM, incubated for 30 minutes at 25° C.; read-out: γ IC50
Structures can show the parent of a compound that is named as a salt.
Kindly supply the reported pIC50 values for the records listed here.
Conceptually, pIC50 converts a concentration in mol/L into minus its log10.

Incoming: What value of measured pIC50 is listed for CC[C@H](Nc1nc(N)nc(N)c1Cl)c1nc2cccc(Cl)c2c(=O)n1-c1cccc(C(N)=O)c1 ?
Outgoing: 5.57

Incoming: What value of measured pIC50 is listed for CC[C@H](Nc1nc(N)nc(N)c1C#N)c1nc2cccc(Cl)c2c(=O)n1-c1cccc(C(N)=O)c1 ?
Outgoing: 6.70

Incoming: What value of measured pIC50 is listed for C[C@H](Nc1ncnc(N)c1C#N)c1nc2cccc(Cl)c2c(=O)n1-c1cccc(NC(=O)Nc2ccncc2Cl)c1 [Compound 111, trifluoroacetic acid salt] ?
Outgoing: 5.37

Incoming: What value of measured pIC50 is listed for N#Cc1c(N)nc(N)nc1N[C@H](c1nc2c(C#N)cc(F)cc2c(=O)n1-c1cccc(C(N)=O)c1)C1CC1 ?
Outgoing: 5.74

Incoming: What value of measured pIC50 is listed for C[C@H](Oc1ncnc2scnc12)c1nc2cccc(Cl)c2c(=O)n1-c1cccc(NC(=O)NC2(C(F)(F)F)CC2)c1 ?
Outgoing: 5.64

Incoming: What value of measured pIC50 is listed for CCNC(=O)Nc1cccc(-n2c([C@H](C)Nc3ncnc(N)c3C#N)nc3cccc(C)c3c2=O)c1 ?
Outgoing: 5.74

Incoming: What value of measured pIC50 is listed for CCC[C@H](Nc1nc(N)nc(N)c1C#N)c1nc2c(Cl)ccc(Cl)c2c(=O)n1-c1cccc(C(N)=O)c1 ?
Outgoing: 5.85

Incoming: What value of measured pIC50 is listed for C[C@H](Nc1ncnc(N)c1C#N)c1nc2c(F)ccc(Cl)c2c(=O)n1-c1cccc(NC(=O)NCCCO)c1 ?
Outgoing: 5.43

Incoming: What value of measured pIC50 is listed for COCCNC(=O)Nc1cccc(-n2c(C(C)Oc3ncnc4scnc34)nc3cccc(Cl)c3c2=O)c1 (centres unmarked) ?
Outgoing: 5.46

Incoming: What value of measured pIC50 is listed for COCCCNC(=O)Nc1cccc(-n2c([C@H](C)Nc3ncnc(N)c3C#N)nc3cccc(Cl)c3c2=O)c1 ?
Outgoing: 5.22

Incoming: What value of measured pIC50 is listed for C[C@H](Nc1ncnc2[nH]cnc12)c1nc2cccc(Cl)c2c(=O)n1-c1cccc(NC(=O)Nc2ccncc2Cl)c1 ?
Outgoing: 5.80

Incoming: What value of measured pIC50 is listed for C[C@H](Nc1ncnc(N)c1C#N)c1nc2cccc(Cl)c2c(=O)n1-c1cccc(NC(=O)Nc2ccccc2S(=O)(=O)O)c1 ?
Outgoing: 5.22
